# ASSAY TARGET: human FGF-1 (flg) receptor tyrosine kinase (Homo sapiens, UniProt P11362)
# Construct: amplify a fragment of DNA that codes for the intracellular tyrosine kinase domain; made in house; host or cells: SF9 insect cells (baculovirus)
# Sequence (P11362 478-767 limits assumed): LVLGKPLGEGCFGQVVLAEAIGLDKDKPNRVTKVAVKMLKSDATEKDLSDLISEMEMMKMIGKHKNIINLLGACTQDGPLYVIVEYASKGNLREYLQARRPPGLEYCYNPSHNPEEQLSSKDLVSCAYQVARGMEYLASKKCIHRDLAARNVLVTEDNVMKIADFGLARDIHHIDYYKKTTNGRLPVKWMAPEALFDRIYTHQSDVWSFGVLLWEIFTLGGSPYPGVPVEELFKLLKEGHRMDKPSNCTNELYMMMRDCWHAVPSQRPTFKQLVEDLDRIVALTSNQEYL
# TEST DETAILS: FGF receptor tyrosine kinase assay (32P incorporation into glutamate-tyrosine co-polymer)
# Format: biochemical
# DETAILS: read-out: FGFr-TK IC50
Would you kindly list log10 of IC50 for each of these compounds?
In our notation, the value equals log10 of IC50 in nM.

{"STRUCTURE AS SMILES": "CCn1c(=O)c(-c2c(Cl)cccc2Cl)cc2cnc(Nc3ccccc3)nc21", "log10 of IC50": 2.33}

// each listed compound needs a value for log10 of IC50
1. Cn1c(=O)c(-c2c(Cl)cccc2Cl)cc2cnc(Nc3ccc4c(c3)OCO4)nc21
2. Cn1c(=O)c(-c2c(Cl)cccc2Cl)cc2cnc(Nc3ccncc3)nc21

Key:
[2.81, 2.20]

---

# ASSAY TARGET: Human EGF receptor tyrosine kinase (Homo sapiens)
# Construct: Human EGF receptor tyrosine kinase was isolated from A431 epidermoid carcinoma cells; endogenous in cells
# Sequence (P00533 25-1210): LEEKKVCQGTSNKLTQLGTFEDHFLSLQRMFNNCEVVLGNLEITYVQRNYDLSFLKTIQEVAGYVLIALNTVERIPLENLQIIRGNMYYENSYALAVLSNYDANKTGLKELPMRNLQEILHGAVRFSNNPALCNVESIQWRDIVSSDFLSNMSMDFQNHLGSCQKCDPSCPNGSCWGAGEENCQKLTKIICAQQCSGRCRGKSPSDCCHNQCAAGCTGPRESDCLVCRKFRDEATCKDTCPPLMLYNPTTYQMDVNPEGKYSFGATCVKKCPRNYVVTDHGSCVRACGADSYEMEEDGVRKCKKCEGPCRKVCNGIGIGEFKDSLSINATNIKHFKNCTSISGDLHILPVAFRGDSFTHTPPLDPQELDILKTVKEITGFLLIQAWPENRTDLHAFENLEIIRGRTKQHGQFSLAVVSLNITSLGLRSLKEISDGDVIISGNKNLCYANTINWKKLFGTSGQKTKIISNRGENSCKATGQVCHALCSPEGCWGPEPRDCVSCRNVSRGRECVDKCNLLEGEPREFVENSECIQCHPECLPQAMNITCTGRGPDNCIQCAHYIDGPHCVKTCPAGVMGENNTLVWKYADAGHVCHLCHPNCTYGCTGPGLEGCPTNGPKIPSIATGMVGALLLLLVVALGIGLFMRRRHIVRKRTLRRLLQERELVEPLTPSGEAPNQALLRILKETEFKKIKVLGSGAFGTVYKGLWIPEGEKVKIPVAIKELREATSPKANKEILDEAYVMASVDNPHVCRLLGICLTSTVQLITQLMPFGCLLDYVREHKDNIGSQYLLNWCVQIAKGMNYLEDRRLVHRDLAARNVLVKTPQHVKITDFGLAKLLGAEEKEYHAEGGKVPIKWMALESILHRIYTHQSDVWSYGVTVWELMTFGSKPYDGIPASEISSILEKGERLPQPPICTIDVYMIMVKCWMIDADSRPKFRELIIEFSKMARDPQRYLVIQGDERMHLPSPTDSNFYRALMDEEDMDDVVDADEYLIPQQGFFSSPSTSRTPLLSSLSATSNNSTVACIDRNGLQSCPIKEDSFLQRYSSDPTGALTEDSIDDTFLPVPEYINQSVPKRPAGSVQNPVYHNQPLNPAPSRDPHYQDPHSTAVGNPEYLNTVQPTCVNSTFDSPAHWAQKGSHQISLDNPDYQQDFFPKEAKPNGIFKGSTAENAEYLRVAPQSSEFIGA
# TEST DETAILS: EGF receptor tyrosine kinase enzyme assay (substrate peptide phosphorylation)
# DETAILS: read-out: EGF-FL IC50
VALUE KIND: log10 of IC50 (log10 of the value in µM)
In our notation, the value equals log10 of IC50 in µM.

Examples from the recorded data:
{"STRUCTURE AS SMILES": "Cn1c(=O)c(-c2c(Cl)cccc2Cl)cc2cnc(NCCCCCC(=O)O)nc21", "log10 of IC50": 0.00}
{"STRUCTURE AS SMILES": "CN1CCN(CCCCCNc2ncc3cc(-c4c(Cl)cccc4Cl)c(=O)n(C)c3n2)CC1", "log10 of IC50": 0.65}
{"STRUCTURE AS SMILES": "COc1ccccc1Nc1ncc2cc(-c3c(Cl)cccc3Cl)c(=O)n(C)c2n1", "log10 of IC50": -0.27}

// each listed compound needs a value for log10 of IC50
1. Cn1c(=O)c(-c2c(Cl)cccc2Cl)cc2cnc(Nc3ccccc3)nc21
2. CCn1c(=O)c(-c2c(Cl)cccc2Cl)cc2cnc(Nc3ccc(OC)cc3)nc21

Key:
[-1.11, -0.89]

// each listed compound needs a value for log10 of IC50
1. Cc1ccc(Nc2ncc3cc(-c4c(Cl)cccc4Cl)c(=O)n(C)c3n2)cc1
2. CN(C)CCCn1c(=O)c(-c2c(Cl)cccc2Cl)cc2cnc(N)nc21
3. COc1cccc(Nc2ncc3cc(-c4c(Cl)cccc4Cl)c(=O)n(C)c3n2)c1

Key:
1. -0.85
2. 0.46
3. -1.48

---

# ASSAY TARGET: human FGF-1 (flg) receptor tyrosine kinase (Homo sapiens)
# Construct: amplify a fragment of DNA that codes for the intracellular tyrosine kinase domain; made in house; host or cells: SF9 insect cells (baculovirus)
# TEST DETAILS: FGF receptor tyrosine kinase assay (32P incorporation into glutamate-tyrosine co-polymer)
# Assay type: biochemical
VALUE KIND: IC50
Please provide the amount together with its unit, number first.

// each listed compound needs a value for IC50
1. COc1cc(Nc2ncc3cc(-c4c(Cl)cccc4Cl)c(=O)n(C)c3n2)cc(OC)c1
2. Cn1c(=O)c(-c2c(Cl)cccc2Cl)cc2cnc(Nc3cccnc3)nc21
3. CN1CCN(CCCNc2ncc3cc(-c4c(Cl)cccc4Cl)c(=O)n(C)c3n2)CC1

Key:
["0.333 µM", "0.172 µM", "0.23 µM"]
